Sequence of the target: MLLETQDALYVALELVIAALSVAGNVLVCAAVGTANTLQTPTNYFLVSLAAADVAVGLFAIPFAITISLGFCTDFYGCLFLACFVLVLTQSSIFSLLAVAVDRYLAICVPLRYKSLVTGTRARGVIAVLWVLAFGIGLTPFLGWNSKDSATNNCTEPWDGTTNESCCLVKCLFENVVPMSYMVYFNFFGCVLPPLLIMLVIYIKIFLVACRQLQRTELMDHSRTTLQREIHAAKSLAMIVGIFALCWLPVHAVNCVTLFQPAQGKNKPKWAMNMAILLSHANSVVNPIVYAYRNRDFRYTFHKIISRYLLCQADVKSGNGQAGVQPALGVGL
measurement_type: Ki

Q. Fill blank: measured Ki of the compound CCCn1c(=O)c2[nH]c(-c3cc(C)n(CC(=O)Nc4cccc5ccccc45)n3)nc2n(CCC)c1=O is ____.
A. > 1 µM
